# Test system: PANC-1 cell line
# method-summary: MTT cytotoxicity assay, 48 h, alone and in combination (IC50 and Combination Index)
# Type: cell-based
# condition-description: Homo sapiens, PANC-1, SEQ ID NO: 1 at 5 μg/mL; read-out: IC50 of Gemcitabine
test-readout: IC50 (µM)
Supply the numeric figure in µM, leaving out any unit text.

Query block: Look up IC50 for this molecule: Nc1ccn([C@@H]2O[C@H](CO)[C@@H](O)C2(F)F)c(=O)n1 [Gemcitabine, reference compound]
Result block: 10.8

###

# Test system: PANC-1 cell line
# method-summary: MTT cytotoxicity assay, 48 h, alone and in combination (IC50 and Combination Index)
# Type: cell-based
# condition-description: Homo sapiens, PANC-1, read-out: IC50 of 5-FU, SEQ ID NO: 1 at 80 μg/mL
# Experimental: The cytotoxic effect on each combination was determined by MTT assay. Combination Index (CI) values were determined for each drug concentration combination. The CI values were calculated based on the IC50 values using the formula as given in below.
test-readout: IC50 (nM)
Supply the numeric figure in nM, leaving out any unit text.

Query block: Look up IC50 for this compound: O=c1[nH]cc(F)c(=O)[nH]1 [5-FU, 5-Fluorouracil, reference compound]
Result block: 725

###

# System: PA-1 cell line
# method-summary: MTT cytotoxicity assay, 48 h, alone and in combination (IC50 and Combination Index)
# Assay type: cell-based
# condition-description: SEQ ID NO: 1 at 5 μg/mL; read-out: IC50 of Cisplatin
test-readout: pIC50
Schema: pIC50 number; meaning minus log10 of the concentration expressed in molar units.

Query block: Any idea what pIC50 came out for N.N.[Cl][Pt][Cl] [Cisplatin, reference compound] on PA-1 cell line?
Result block: 7.03

###

# Tested on: T24 cell line
# method-summary: MTT cytotoxicity assay, 48 h, alone and in combination (IC50 and Combination Index)
# Assay type: cell-based
# condition-description: Homo sapiens, T-24, SEQ ID NO: 1 at 10 μg/mL; read-out: IC50 of Gemcitabine
test-readout: IC50
Report field: quantity (unit follows the number).

Query block: Look up IC50 for this molecule: Nc1ccn([C@@H]2O[C@H](CO)[C@@H](O)C2(F)F)c(=O)n1 [Gemcitabine, reference compound]
Result block: 0.32 nM

###

# Test system: KB cell line
# method-summary: MTT cytotoxicity assay, 48 h, alone and in combination (IC50 and Combination Index)
# Assay type: cell-based
# condition-description: SEQ ID NO: 1 at 30 μg/mL; read-out: IC50 of Cisplatin
test-readout: IC50 (nM)
Supply the numeric figure in nM, leaving out any unit text.

Query block: Look up IC50 for this compound: N.N.[Cl][Pt][Cl] [Cisplatin, reference compound]
Result block: 66.2

###

# Test system: HT-29 cell line
# method-summary: MTT cytotoxicity assay, 48 h, alone and in combination (IC50 and Combination Index)
# Type: cell-based
# condition-description: Homo sapiens, HT-29, read-out: IC50 of 5-FU, SEQ ID NO: 1 at 5 μg/mL
test-readout: IC50
Report field: quantity (unit follows the number).

Query block: Look up IC50 for this compound: O=c1[nH]cc(F)c(=O)[nH]1 [5-FU, 5-Fluorouracil, reference compound]
Result block: 25.9 µM

###

# Tested on: KB cell line
# method-summary: MTT cytotoxicity assay, 48 h, alone and in combination (IC50 and Combination Index)
# Type: cell-based
# condition-description: Homo sapiens, KB, read-out: IC50 of 5-FU, SEQ ID NO: 1 at 30 μg/mL
test-readout: IC50 (pM)
Supply the numeric figure in pM, leaving out any unit text.

Query block: Look up IC50 for this compound: O=c1[nH]cc(F)c(=O)[nH]1 [5-FU, 5-Fluorouracil, reference compound]
Result block: 1.19
